Test system: SK-BR-3
assay.overview: Cytotoxic activity against human SK-BR-3 cells after 48 hrs by MTT assay
Format: functional, cell-based
cond: SK-BR-3, 48 h

# molecule, assayed.target, IC50
measured = [
    ("CC[C@@]12C=Cn3c4c(c5ccccc53)CC[N+]([O-])(CCC1)[C@H]42 (stereo partly specified)", "SK-BR-3", "> 40 µM"),
    ("C/C=C(/C=O)[C@@H]1C[C@H]2c3[nH]c4ccccc4c3CCN2C=C1C(=O)OC", "SK-BR-3", "24.7 µM"),
    ("CC[C@@]12CCCN3C(=O)C=C4c5ccccc5N(C(=O)CC1)C432 (stereo partly specified)", "SK-BR-3", "> 40 µM"),
    ("CC[C@]12CCC[N+]3([O-])CCc4c(n(c5ccccc45)[C@H](OC)C1)[C@H]23 (stereo partly specified)", "SK-BR-3", "> 40 µM"),
    ("CC[C@@H]1CN2CC[C@]34c5ccccc5-n5c3c(cc(C(N)=O)c5=O)[C@H]1C[C@H]24", "SK-BR-3", "> 40 µM"),
    ("CC[C@]12CCCN3CCc4c(n(c5ccccc45)[C@H](OC)C1)[C@@H]32", "SK-BR-3", "> 40 µM"),
    ("COC(=O)C1=C2Nc3ccccc3[C@]23CCN2CC[C@H]1[C@@]1(O[C@H]1C)[C@@H]23", "SK-BR-3", "> 40 µM"),
    ("CC[C@@H]1CN2CC[C@]34c5ccccc5-n5c3c(cc(C(=O)O)c5=O)[C@H]1C[C@H]24", "SK-BR-3", "> 40 µM"),
    ("CC[C@@H]1CN2CC[C@]34c5ccccc5-n5c3c(cc(C(=O)OC)c5=O)[C@H]1C[C@H]24", "SK-BR-3", "> 40 µM"),
    ("CC[C@@]12C=Cn3c4c(c5ccccc53)CCN(CCC1)[C@H]42", "SK-BR-3", "> 40 µM"),
    ("CCC1=CN2CC[C@]34c5ccccc5-n5c3c(cc(C(=O)OC)c5=O)[C@H]1C[C@H]24", "SK-BR-3", "> 40 µM"),
]
